Here the recorded growth is given for each entry.
# System: SF-268 CNS
# Assay Comment: NCI-60 one-dose screen, 48 h (100 = growth as untreated, 0 = no growth, -100 = all killed)
# Study Conditions: 10 µM unless noted
The panel holds about 83,000 compounds, 20% with a hit somewhere; the sample as a whole holds those more often.
Readout Label: growth (%)

INSERT INTO results (molecule, readout_label, readout_number) VALUES
  ('O=[N+]([O-])c1cc(S(=O)(=O)OCC2CO2)ccc1Cl (stereo unspecified)', 'growth', 94.3),
  ('CCCCCCCCCCCCNC(=S)N/N=C/c1ccc(Cl)c(Cl)c1', 'growth', 118),
  ('CCOc1ccc(/C=C/C=N/NC(N)=S)cc1', 'growth', 92.1),
  ('COc1ccc2c(c1)C(=O)/C(=C/c1ccc(O)cc1)O2', 'growth', 97.9),
  ('COc1cccc(-n2cc(-c3nc(Cl)c4ccccc4n3)nn2)c1', 'growth', 105),
  ('C=CCn1c(C)nc2ccc(Nc3nc(Nc4ccc(F)cc4)nc4ccccc34)cc21', 'growth', 66);
